Assay: protein stability index of a GFP-peptide fusion (yeast GPS) (PSI 1-4); higher = more stable; sorted into four equal gates, so the index is relative within each strain
Settings: pdr5∆
Respond with Met for protein stability index values of 3 and above, Not met for values below.

Consider the worked cases shown below.
[[record]]
sequence_entry = "TNELWARLAILKERAKN [YGR119C/NUP57]"
label_class = "Not met"

[[record]]
sequence_entry = "EDISKATHLPKDNVEHL [RPN9]"
label_class = "Met"

[[record]]
sequence_entry = "MLLANISVARKIYDAFP [DIS3]"
label_class = "Not met"

[[record]]
sequence_entry = "DKKLLRRLLNLYNDNNK [SWI1]"
label_class = "Not met"

[[record]]
sequence_entry = "TGEKPIITGSTSTSSSN [MED8]"
label_class = "Not met"

[[record]]
sequence_entry = "AMIALSMILIQQTEKLN [RPN2]"
label_class = "Not met"


## Task Exam item: decide whether the reported protein stability index for PKAISNFLIKLSELSPG [YCS4] is at least 3.
## Result Not met

## Task Exam item: decide whether the reported protein stability index for TDKIGRSVPAPGKGILT [FAS2] is at least 3.
## Result Met

## Task Exam item: decide whether the reported protein stability index for GASVISLTKDKSIRKDT [SIR4] is at least 3.
## Result Met

## Task Exam item: decide whether the reported protein stability index for RENALYDYYALQLLPLQ [SNF2] is at least 3.
## Result Not met

## Task Exam item: decide whether the reported protein stability index for DKETQLKKRAVSGVELR [POP7] is at least 3.
## Result Not met

## Task Exam item: decide whether the reported protein stability index for LFKNYRFNFISKYFIID [YMR129W/POM152] is at least 3.
## Result Not met

## Task Exam item: decide whether the reported protein stability index for IRDPLTQTGLLQDLEEA [RPC82] is at least 3.
## Result Met

## Task Exam item: decide whether the reported protein stability index for DNIDYAPMRLATAALEI [YJL039C/NUP192] is at least 3.
## Result Not met

## Task Exam item: decide whether the reported protein stability index for FPRNGKAPEAEQVLSAA [RPL13A] is at least 3.
## Result Not met

## Task Exam item: decide whether the reported protein stability index for SMIEKGGDWERRNRYKT [RPN7] is at least 3.
## Result Met

## Task Exam item: decide whether the reported protein stability index for NTLRMKHGTYDKLDDDG [RPB2] is at least 3.
## Result Not met

---

Quick reference: protein stability index of the listed items.
Assay: protein stability index of a GFP-peptide fusion (yeast GPS) (PSI 1-4); higher = more stable; sorted into four equal gates, so the index is relative within each strain
Conditions: doa10∆
Form rule: numeric answer, no unit written next to it.

[[record]]
sequence_entry = "NVAVDIINFGEIEQNTE [RPN10]"
measurement_name = "protein stability index"
endpoint_result = 3.23

[[record]]
sequence_entry = "PERFMVFQLPTRLPAFE [RPC53]"
measurement_name = "protein stability index"
endpoint_result = 2.31

[[record]]
sequence_entry = "KAKNPLTHSTPKNFGIG [RPL8B]"
measurement_name = "protein stability index"
endpoint_result = 3.31

[[record]]
sequence_entry = "YRSCETQDESEIKDAET [SMC4]"
measurement_name = "protein stability index"
endpoint_result = 3.77

[[record]]
sequence_entry = "IALGEDIGKEMSLRHFG [RPN1]"
measurement_name = "protein stability index"
endpoint_result = 3.2

[[record]]
sequence_entry = "LSNLHESNKRYRFFKKI [SNF12]"
measurement_name = "protein stability index"
endpoint_result = 2.79

[[record]]
sequence_entry = "VEVCLADLQGSEDHSFR [RPS1A]"
measurement_name = "protein stability index"
endpoint_result = 3.44

[[record]]
sequence_entry = "FTYNKFLLNQNKQLSQS [YIL149C/MLP2]"
measurement_name = "protein stability index"
endpoint_result = 2.68


## Task For the sequence ESAAVYNGRGARERKTA [SNF2] , what protein stability index is on record?
## Result 2.55

## Task For the sequence LKKLQSDIESANNQEYD [SMC1] , what protein stability index is on record?
## Result 3.19

## Task For the sequence KNTMFEKSDALVGVYRQ [SMC1] , what protein stability index is on record?
## Result 3.27

---

Assay: protein stability index of a GFP-peptide fusion (yeast GPS) (PSI 1-4); higher = more stable; sorted into four equal gates, so the index is relative within each strain
Conditions: doa10∆
Respond with rule met for protein stability index values of 3 and above, rule not met for values below.

## Task Exam item: decide whether the reported protein stability index for ASKSGKLTQKLVTAGVA [CYT1] is at least 3.
## Result rule not met

## Task Exam item: decide whether the reported protein stability index for SVPLVIGQFLEPIDQNT [RPT3] is at least 3.
## Result rule not met

## Task Exam item: decide whether the reported protein stability index for YLKKREAGEVKDDGAFV [RPL10] is at least 3.
## Result rule met

## Task Exam item: decide whether the reported protein stability index for DLCSLKPYVDRFAFSVI [DIS3] is at least 3.
## Result rule not met

## Task Exam item: decide whether the reported protein stability index for GDYVAYQLNGVAPFMIK [YMR129W/POM152] is at least 3.
## Result rule not met

## Task Exam item: decide whether the reported protein stability index for TRSALKLVRESELLGGT [QCR2] is at least 3.
## Result rule not met

---

Assay: protein stability index of a GFP-peptide fusion (yeast GPS) (PSI 1-4); higher = more stable; sorted into four equal gates, so the index is relative within each strain
Conditions: ubr1∆
Quick reference: protein stability index of the listed items.
Form rule: numeric answer, no unit written next to it.

Observe how each entry below is paired with its result.
[[record]]
sequence_entry = "DDLEKTLDKKDSIPLRI [RPN9]"
measurement_name = "protein stability index"
endpoint_result = 2.33

[[record]]
sequence_entry = "NVIDTQRKNGVTNSPLF [ECM29]"
measurement_name = "protein stability index"
endpoint_result = 3.12

[[record]]
sequence_entry = "SPMLYKVPDISSDGQLK [BRR2]"
measurement_name = "protein stability index"
endpoint_result = 2.58

[[record]]
sequence_entry = "LKKLQSDIESANNQEYD [SMC1]"
measurement_name = "protein stability index"
endpoint_result = 3.13

[[record]]
sequence_entry = "FQIDNDNIRYATALQTC [SMC2]"
measurement_name = "protein stability index"
endpoint_result = 1.74

[[record]]
sequence_entry = "QGLAMVEKYAPDVVRSL [RRP42]"
measurement_name = "protein stability index"
endpoint_result = 2.72


## Task For the sequence RLGSEADAKAFLDSMAQ [FAS2] , what protein stability index is on record?
## Result 3.33

## Task For the sequence NSSEKNNNNNNNNNNNN [MED2] , what protein stability index is on record?
## Result 3.12

## Task For the sequence AEEQTKLQSQSLHTKNV [YLR018C/POM34] , what protein stability index is on record?
## Result 3.13

## Task For the sequence GGVGSMGAINNNIPSLT [SNF6] , what protein stability index is on record?
## Result 3.32

## Task For the sequence YQNRSTRSQFCLNTQRG [RRI1] , what protein stability index is on record?
## Result 2.97

## Task For the sequence LGRLNKLRKIAISKKNK [LIN1] , what protein stability index is on record?
## Result 1.47

## Task For the sequence LSSELDSNKTLLHNHLK [SMC2] , what protein stability index is on record?
## Result 3.2

## Task For the sequence ITFLQTLYIGNTANGRP [ECM29] , what protein stability index is on record?
## Result 1.97

## Task For the sequence WSKTIKARTNLHQHVVL [RPC34] , what protein stability index is on record?
## Result 2.34

## Task For the sequence TKIFNSVAEVFQKAQGS [YCG1] , what protein stability index is on record?
## Result 1.5

## Task For the sequence IDREGNARKVVGASVVV [RPS12] , what protein stability index is on record?
## Result 3.31

## Task For the sequence SPVYDVDPRIINSENDY [NUT1] , what protein stability index is on record?
## Result 2.76

---

Test: protein stability index of a GFP-peptide fusion (yeast GPS) (PSI 1-4); higher = more stable; sorted into four equal gates, so the index is relative within each strain
Details: ubr1∆
Quick reference: protein stability index of the listed items.
Form rule: numeric answer, no unit written next to it.

Observe how each entry below is paired with its result.
[[record]]
sequence_entry = "NLERLRSDLQSKIQEIE [YIL149C/MLP2]"
endpoint_result = 3.33

[[record]]
sequence_entry = "DAAAEKRNGDEVYTLVD [ARP7]"
endpoint_result = 3.06

[[record]]
sequence_entry = "NPDDDYGFKQEIFDVTS [FAS1]"
endpoint_result = 3.31

[[record]]
sequence_entry = "DEDDDQPMISPDNSIFG [SWI3]"
endpoint_result = 2.94

[[record]]
sequence_entry = "FVNGVATSFSRKKARTF [FAS2]"
endpoint_result = 1.14

[[record]]
sequence_entry = "EVRQETQPKAEATQDDD [NUT1]"
endpoint_result = 3.16


## Task For the sequence ECPAIPIFNYIFTEKIY [YJL039C/NUP192] , what protein stability index is on record?
## Result 1.4

## Task For the sequence QTVSNKEDAKATMENIQ [SRP54] , what protein stability index is on record?
## Result 2.99

## Task For the sequence MSVSDNDQALIKVLLRQ [RET1] , what protein stability index is on record?
## Result 2.6

## Task For the sequence FNTPFANTGGQDKIELS [SNF2] , what protein stability index is on record?
## Result 1.87

## Task For the sequence LAINAKTITSGLKYALA [RPB2] , what protein stability index is on record?
## Result 2.79

## Task For the sequence MKLSMPPEVTSSNCHVR [POP1] , what protein stability index is on record?
## Result 2.48

## Task For the sequence LYVPRKCSATNRIIKAD [RPS21A] , what protein stability index is on record?
## Result 2.19

## Task For the sequence VFHDPDHSMILPSGVLS [SMC3] , what protein stability index is on record?
## Result 2

Origin of values: the supplement of paper PMC9732359
